Known viability at 72 h, 1000 µM of a selection of compounds
measurementNotes: Cell viability of B16 melanoma 4A5 cells
Assay type: cell-based, murine
conditionLabel: mouse, 1000 µM, B16 4A5 cells
Give the number; % is assumed, so skip it.

Q: Entry O=C1O[C@H]([C@H](O)CO)C(O)=C1O [Erythrobic acid, reference compound] : reported viability at 72 h, 1000 µM = ?
A: 44.5

Q: Try this compound too: CCCCOC1=C(OCC(O)CO)C(=O)O[C@@H]1[C@@H](O)CO (stereo partly shown) [compound 18, 3-O-butyl-2-O-(2,3-dihydroxypropyl)-AsA]
A: 78.1

Q: Try this compound too: CCCOC1=C(OCC(O)CO)[C@@H]([C@@H](O)CO)OC1=O (stereo partly shown) [compound 3, 3-O-(2,3-dihydroxypropyl)-2-O-propyl-AsA]
A: 94.5

New cases:
Q: Entry O=C1O[C@H]([C@@H](O)CO)C(OCC(O)CO)=C1O (stereo partly shown) [compound 1, 3-O-(2,3-dihydroxypropyl)-AsA] : reported viability at 72 h, 1000 µM = ?
A: 100

Origin of values: paper PMC5979531
